- Test system: MS2 coat protein
- assay.notes: apparent KD of MS2 coat protein; designed switch direction (-1 OFF switch, 1 ON switch): -1; higher = weaker reporter binding
- condition.parameters: Eterna round: R95; input ligand: microRNA oligo, concentration not stated
metric: apparent KD of MS2 coat protein (nM)
One number for each entry, in nM.

sequence.record: GAGGGUUAAGGAUAUACAUGAGGAUCACCCAUGUAUGGCAAGCCAUAAUCCUCAUUAAGUAGAAGGUAACCUUC [Edederle] (puzzle: Exclusion 3)
apparent KD of MS2 coat protein, nM: 11.8

Hi, could you look up apparent KD of MS2 coat protein for each item in my list?
1. CCAUCGUGUGUGAGGAUAUGCUGGUCCUUGGAUCAGCAGAAGGCACAUGAGGAUCACCCAUGUGAAUACGAUGG [Mat - Exclusion 4 - JL Mod - D87] (puzzle: Brourd's mod of Exclusion 4)
2. AUAUUAAGUGUGAGGAUAUGCUGGUCCUUGGAUCAGCAGAAGGCACAUGAGGAUCACCCAUGUAAUAUAUUUAA [Mat - Exclusion 4 - JL Mod - D48] (puzzle: Brourd's mod of Exclusion 4)

A:
14.9
87.2

====

Please respond with reported apparent KD of MS2 coat protein for every item in the list.
- System: MS2 coat protein
- assay.notes: apparent KD of MS2 coat protein; designed switch direction (-1 OFF switch, 1 ON switch): -1; higher = weaker reporter binding
- condition.parameters: Eterna round: R95; input ligand: FMN 200 uM
Answers are plain numbers, in µM.

Hi, could you look up apparent KD of MS2 coat protein for each item in my list?
1. UAGAAGUUCAACGAGUGAGACAUGAGGAUCACCCAUGUGGUGGUAGGGAACAAGCUUUUUGCACGUACUUAUGAGGA [JR_SV3TOV1_Sub005] (puzzle: Sensor v3, turn-off variant 1)
2. CGUGACUCAGGAUAUCUAUUGUAUCACAUGAGGAUCACCCAUGUCCAGCGAAAGCUGGAGGGAGAAGGGAGUCACG [Fiskers Ex 5 - 46] (puzzle: Exclusion 5)
3. GCAUUGAGUGUGAGGAUAUGCUGGUCCUAAGAUCAGCAGAAGGCACAUGAGGAUCACCCAUGUGAAAACAAUGC [Mat - Exclusion 4 - JL Mod - D65] (puzzle: Brourd's mod of Exclusion 4)
4. CAUCUCGUAGGAUAUUCACAAAAGCACAUGAGGAUCACCCAUGUUAUCCGACAUGAUGCCGAAGAAGGACGAAAAC [Di] (puzzle: Exclusion 5)
5. AAAAAGAGAGGAUAUACAACAAAACAAAACAAAACAAACACACAUGAGGAUCACCCAUGUAGAAGGCUCGAAAA [Exclusion 2 #2] (puzzle: Exclusion 2)
6. CUGAGCAGACGGAGAUCCAACAUGAGGAUCACCCAUGUCUCAAAAGCUUUUUGCUCAUCUUAUUGUACCUUGGUGCU [JL ViennaUCT Edcesobi mod 2] (puzzle: Sensor v3, turn-off variant 1)
7. GGAAAGCAAGGAUAUACAAGGAGACGAUGGAAAGUAGAGCGACAUGAGGAUCACCCAUGUAGAAGGUGCGAGAG [JR_Exclu2_Sub038] (puzzle: Exclusion 2)
8. AGUAACUAUCACGAAAGUGAUAGUUACAAAAGCAGUGAAACAUGAGGAUCACCCAUGUCCUCAUUUGCUCGUCUUAU [Sensor 3 - 24] (puzzle: Sensor v3, turn-off variant 2)

A:
1. 0.368
2. 0.0486
3. 0.102
4. 0.107
5. 0.0251
6. 0.391
7. 0.0407
8. 0.0534

Hi, could you look up apparent KD of MS2 coat protein for each item in my list?
1. UUUAAUUUUUUUUUUUUACAAGCUUUUUGCUCGUCUUAUACAUGAGGAUCACCCAUGUGGGUAGAAGGUAAAUUAUC [JMF 66] (puzzle: Sensor v3, turn-off variant 2)
2. AACCCUAGGGUCAGACGCACAAGCUUUUUGCUCGUUUUAACAUGAGGAUCACCCAUGUCUAGUGGAUCUGAUCGGGC [Isreen] (puzzle: Sensor v3, turn-off variant 2)

A:
1. 0.0243
2. 0.0247
